Task for the reader: assign each of the following variants its reported folding stability dG.
B1: 6NMW (parent)
chain: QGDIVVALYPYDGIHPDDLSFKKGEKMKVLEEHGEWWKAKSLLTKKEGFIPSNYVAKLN

- Variants of: B1
- protocol text: folding stability dG (cDNA display proteolysis); higher = more stable
- test parameters: PBS, room temperature
Answers are plain numbers, in kcal/mol.

# batch size: 4; output folding stability dG per entry
1. Y9A
2. I4A
3. G2K
4. I4E

Output:
1. 2.74
2. 0.908
3. 2.9
4. 1.53

For the 4 variants below, give their folding stability dG values.
1. V6E
2. G34C
3. E31V
4. L58E

Output:
[2.18, 2.75, 2.64, 2.77]
